Ref: ChEMBL document CHEMBL1201862

test system: BT-549; assay: NCI tumour cell line growth inhibition, 48 h
Active and inactive are the calls of the source. Cut-off read from the data, not from the text of the source: active = GI50 up to about 1.1 µM and inactive = higher.
Please go through the items and note down their GI50.

Use the examples below as a reference point.
In [3]: df
Out[3]:
                                   compound  parameter_measured               result
0  CC1CCOc2ccc(cc2)/C=N\c2ccc(cc2)-c2ccc(cc2)/N=C\c2ccc(cc2)OCC1                GI50  > 100 µM (inactive)
1        CCCC(=O)NC1=C(Cl)C(=O)c2ccccc2C1=O                GI50   5.43 µM (inactive)
2  OCCCCCCCCCCCOc1ccc(C2OCC3(CO2)COC(c2ccc(OCCCCCCCCCCCO)cc2)OC3)cc1 (stereo not given)                GI50   > 50 µM (inactive)
3  COc1ccc(N2C(=O)C3c4[nH]c5cccc(Cl)c5c4C4CCC(C(C)(C)C)CC4C3C2=O)cc1 (stereo not given)                GI50  > 100 µM (inactive)
4  NCCCN1CCN(CCCNc2ccc3nnn4c5ccccc5c(=O)c2c34)CC1                GI50   5.81 µM (inactive)

Hey, can you go through the list below and give me GI50 for every item?
1. CCOc1ccc(/C(C=O)=C(\Cl)c2ccc(OC)cc2)cc1
2. O=[N+]([O-])c1ccc(NC(=S)Nc2ccccn2)cc1
3. CCCCCCCCCCCCCCCCCCN(C)C(COC)COP(=O)([O-])OCC[N+](C)(C)C (stereo not given)

1: > 100 µM (inactive); 2: > 92.3 µM (inactive); 3: 9.18 µM (inactive)

Value sought for every listed compound: GI50.
1. CCOC(=O)c1nc2ccc(C(F)(F)F)cc2nc1NCc1cc(OC)c(OC)c(OC)c1
2. Cc1cs/c(=N\C(P(=O)(O)O)P(=O)(O)O)n1C

1. > 100 µM (inactive)
2. > 100 µM (inactive)

* * *

tested on: NCI-H522; test: NCI tumour cell line growth inhibition, 48 h
Active and inactive are the calls of the source. No stated cut-off is given here; in the data, active = GI50 up to about 1.1 µM and inactive = higher.
Hi there, use one of these labels in your reply, thanks! True for active, False for inactive

In [3]: df
Out[3]:
                                   compound    cat
0  COc1ccc(NC(=O)CC(=O)N2N=C(N3c4ccccc4Sc4ccccc43)CC2c2ccccc2)cc1 (configuration not stated)  False
1  COc1ccc2c3c1OC1C(=O)C=CC4(CC2)N(C)CCC314 (configuration not stated)  False
2  N/N=C1\C(=O)N(C2CCCCC2)C(=O)C1C(=O)NC1CCCCC1 (configuration not stated)  False
3  CCOC(=O)/C=C(/C(=O)OCC)n1cnc2c(=O)[nH]c(NC(C)=O)nc21  False
4        C=C1CCCC(C)(C)[C@H]1C/C=C1\CCOC1=O  False
5  CCN1CCC(O)(C(C(=O)O)c2ccccc2)CC1 (configuration not stated)  False

Lab log entry: "O=S(=O)(O)n1ccnc1" — outcome as called in the assay?
False

# fetch the recorded call for "Cc1cccc2[s+]snc12" here
False

Identify the outcome logged in this assay for the compound shown: "C=C1C[C@@H](O)[C@@H](Br)C(C)(C)[C@@]12C=CC(=O)CC2"
False

* * *

Hi there, I'd appreciate the recorded GI50 for every entry that follows.
system: K562; assay: NCI tumour cell line growth inhibition, 48 h
Calls of active or inactive are those of the source. No stated cut-off is given here; in the data, active = GI50 up to about 1.1 µM and inactive = higher.

Known GI50 results, listed for orientation:
molecule	measurement target	GI50
COC(=O)C1Cc2c([nH]c3ccccc23)C(C2CCCCC2)N1 (centres undefined)	K562	> 100 µM (inactive)
COc1cc2c(cc1OC)C(C(CO)CO)N(CC(O)CCl)CC2 (centres undefined)	K562	> 100 µM (inactive)
CCCCCCCCCCCCCCCCCCN(C)C(COC)COP(=O)([O-])OCC[N+](C)(C)C (centres undefined)	K562	11.8 µM (inactive)
COC(=O)c1ccc(COC(=O)N2C=CCC2C(=O)O)cc1 (centres undefined)	K562	> 100 µM (inactive)
O=C(/C=C/c1ccc(OCc2ccccc2)cc1)NCc1ccc(C(=O)NCCc2c[nH]c3ccccc23)cc1	K562	44.4 µM (inactive)
CN1CN(c2ccccc2)C2(CCN(CCCN(C)c3ccc(F)cc3)CC2)C1=O	K562	1.58 µM (inactive)
COC(=O)c1cc(NC(=O)Cc2c[nH]c3ccccc23)cn1C	K562	58.1 µM (inactive)
CO[C@@H]1C[C@H](OC(N)=O)[C@@H]2C=C[C@@H]3/C=C(C)/C=C/[C@@H](C)[C@H]([C@H](C)[C@H](O)[C@@H](C)NC(C)=O)OC(=O)/C=C/C=C(C)\C=C\[C@]3(C)[C@@H]2C1	K562	0.0101 µM (active)

Continue with the next molecule.
Enter reported GI50 observed with K562 for O=C(C1OC1c1ccc(F)cc1)C12CC3CC(CC(C3)C1)C2 (centres undefined)
17.6 µM (inactive)

* * *

Provide the reported GI50 of each item.
system: UO-31; test: NCI tumour cell line growth inhibition, 48 h
Active and inactive are the calls of the source. No stated cut-off is given here; in the data, active = GI50 up to about 1.1 µM and inactive = higher.

compound	result
O=[N+]([O-])c1ccc2c(c1)Cc1cc(/N=C/c3ccc4c(c3)OCO4)ccc1-2	> 100 µM (inactive)
CC[C@H](C)[C@H]1NC(=O)[C@@H](NC(=O)[C@@H](CC(C)C)N(C)C(=O)C2CCCN2C(=O)[C@H](C)O)[C@@H](C)OC(=O)[C@H](Cc2ccc(OC)cc2)N(C)C(=O)[C@@H]2CCCN2C(=O)[C@H](CCCCNC(=O)OCc2ccccc2)NC(=O)[C@H](C)C(=O)[C@H](C(C)C)OC(=O)C[C@@H]1O (stereo partly drawn)	23.4 µM (inactive)

Quick one: give me GI50 for each item below, same order please.
1. COc1ccc(OC)c2sc(N3C(=O)/C(=C/c4ccc(SC)cc4)N=C3c3ccccc3)nc12
2. C=CCOC(=O)C1=C(C)N=C2N[C@H](CCCCCCCCC)C[C@@H]3CCC1N23 (stereo partly drawn)
3. CC(C)(C)OC(=O)N1CCc2[nH][nH]c(=O)c2C1
4. Nn1c(-c2cccc(Cl)c2)nc2ccccc2c1=O
5. CC(=O)Nc1sc([N+](=O)[O-])cc1S(=O)(=O)c1ccc(Cl)cc1
6. Cc1cc(C)nc(NS(=O)(=O)c2ccc(NNC(=O)c3cccc4c(=O)c5ccccc5[nH]c34)cc2)n1

1: 24.2 µM (inactive); 2: 17.1 µM (inactive); 3: > 100 µM (inactive); 4: > 100 µM (inactive); 5: 3.09 µM (inactive); 6: 41.6 µM (inactive)

* * *

tested on: UACC-257; experiment: NCI tumour cell line growth inhibition, 48 h
The source made the active and inactive calls. Cut-off read from the data, not from the text of the source: active = GI50 up to about 1.1 µM and inactive = higher.
Classes to choose from: true (1) (active), false (0) (inactive)

>>> print(df.to_string())
                                   compound        cat
0  Nc1cc(-c2ccc(Cl)cc2)nn1-c1nc2ccccc2nc1-c1ccccc1  false (0)
1  Nc1ncnc2c1ncn2C1CC(O)C(CO)O1 (stereo unspecified)  false (0)
2          Nn1c(-c2cccc(Cl)c2)nc2ccccc2c1=O  false (0)
3  O=C(CC1(O)C(=O)Nc2c(Cl)cc(Cl)cc21)c1ccc(Br)cc1 (stereo unspecified)  false (0)
4  CSC12c3cc(C)n(-c4ccc(I)cc4)c3CC(C)(C)CN1C(=O)C2Oc1ccccc1 (stereo unspecified)  false (0)

Assay outcome for CC(=O)OCC1OC(n2c(=O)[nH]c(=O)c3sccc32)C(Br)C1OC(C)=O (stereo unspecified) : what was it?
false (0)

Assay outcome for "Cc1cc2c(cc1Cl)SC(N/N=C(\N)c1ccc(Cl)cc1)=NS2(=O)=O" : what was it?
false (0)

Please share the test call associated with O=C1NC(Cc2ccc(O)cc2)C(=O)N2CCCC12 (stereo unspecified) .
false (0)

Per the assay record, what outcome was assigned to CO[C@@H](C(=O)OC1C=CC2(CC1)C(=O)N(C)c1ccccc12)c1ccccc1 (stereo partly specified) ?
false (0)

Test call, this compound: COC(=O)C(C(=O)C(=O)Nc1nnc(S)[nH]1)c1csc(-n2nc(-c3ccccc3)cc2-c2ccccc2)n1 (stereo unspecified)
false (0)

* * *

tested on: HCC 2998; assay: NCI tumour cell line growth inhibition, 48 h
The source made the active and inactive calls. No stated cut-off is given here; in the data, active = GI50 up to about 1.1 µM and inactive = higher.
Choose one outcome from this list and give only that: T = active, F = inactive

Worked examples, 6 molecules total:
>>> df
                                   molecule  cat
0  COc1ccccc1NC(=O)CC(=O)n1nc(C)c(/N=N/c2ccccc2Cl)c1C    F
1  CCCCNCC(=O)O[C@]1(CC)C(=O)OCc2c1cc1n(c2=O)Cc2cc3ccccc3nc2-1    F
2  CCOC(=O)c1nc2ccc(C(F)(F)F)cc2nc1NCc1cc(OC)c(OC)c(OC)c1    F
3  O=C1NCC2=C1CCC1c3ccccc3CCN21 (stereo not drawn)    F
4        N#Cc1c(OCCF)c2ccccc2n2c1nc1ccccc12    F
5  CCOC(=O)c1[nH]cc(C)c1-c1cccn1-c1ccc(Cl)cc1[N+](=O)[O-]    F

Query: recorded result category for C[C@@H]1OCC(O)C([C@H]2OC(c3ccccc3)=N[C@H]2CO)O1 (stereo partly drawn) in this test
F

Write down the call the test reported for this molecule. Item: CCOc1cc(C2SCC(=O)N2c2ccc(Oc3ccc(Cl)cc3)c(Cl)c2)ccc1O (stereo not drawn)
F

For "N#CN=C(NCCO)NCCO" , what call appears in the results of this test?
F

Which outcome was assigned to C=C(C)C1CCC2(C)C1CCC1(C)C2CCC2C3(C)C4OC(OC4=O)C(C)(C)C3CCC21C (stereo not drawn) in this test?
F

Test call for this molecule, please: O=C1C(Cl)C(c2ccccc2)N1n1cnc2ccccc2c1=O (stereo not drawn)
F

Short answer needed: outcome of this test for "CC[P+]1(c2ccccc2)[C@@H](C)CC[C@@H]1C" ?
F

Hi, do you know how "COS(C)(=O)=O" came out in this test?
F

Returns: the outcome recorded for "Cc1[nH]c(=O)c2oc3cc4ccccc4cc3c2c1C(=O)O" in this assay.
F

Fill in: this test's call for "O=C1C(N2CCN(c3ccccn3)CC2)=C(Cl)C(=O)c2ncccc21" is ___
F

Kindly provide the recorded test outcome for the following molecule: COc1cc(/C=C2\CC3C4CC[C@H]5C[C@@H](O)CC[C@]5(C)C4CC[C@]3(C)C2=O)cc(OC)c1OC (stereo partly drawn)
F

// param item: "COc1ccc(-n2sc3ncccc3c2=O)cc1" ; yields the recorded call
F

How did this test come out for "COC(=O)/C(=C/c1ccc(OC)cc1)C(C(=O)O)=C1CCCC1" ?
F
